system: NCI-H1755; assay: relative viability (nuclei count vs DMSO), 5 days (fraction); higher = more cells survive; conditions: first compound 5 µM
Threshold 0.7. relative viability below it: Fulfilled. relative viability at it or above: Not fulfilled.

INPUT: Regarding O=C(O)CCCCC(CCSCc1ccccc1)SCc1ccccc1 (configuration not stated) [CPI-613] + O=C(CCCCCCC(=O)Nc1ccccc1)NO [Vorinostat] (partner 1 µM) , kindly confirm whether its relative viability is beneath 0.7.
OUTPUT: Not fulfilled

INPUT: Please indicate whether the reported relative viability of O=C(O)CCCCC(CCSCc1ccccc1)SCc1ccccc1 (configuration not stated) [CPI-613] + Nc1nc2[nH]cc(CCc3ccc(C(=O)N[C@@H](CCC(=O)O)C(=O)O)cc3)c2c(=O)[nH]1 [Pemetrexed] (partner 0.2 µM) is strictly below 0.7.
OUTPUT: Fulfilled

INPUT: Is relative viability of O=C(O)CCCCC(CCSCc1ccccc1)SCc1ccccc1 (configuration not stated) [CPI-613] + Nc1ncn([C@H]2C[C@H](O)[C@@H](CO)O2)c(=O)n1 [Decitabine] (partner 2 µM) strictly below 0.7?
OUTPUT: Not fulfilled

INPUT: API: query returns whether the molecule falls strictly under 0.7 in relative viability. Query: O=C(O)CCCCC(CCSCc1ccccc1)SCc1ccccc1 (configuration not stated) [CPI-613] + N=C(N)NC(=N)NCCc1ccccc1 [Phenformin] (partner 250 µM)
OUTPUT: Fulfilled

INPUT: Quick check: does O=C(O)CCCCC(CCSCc1ccccc1)SCc1ccccc1 (configuration not stated) [CPI-613] + Cc1nc(NC(=O)N2CCC[C@H]2C(N)=O)sc1-c1ccnc(C(C)(C)C(F)(F)F)c1 [Alpelisib] (partner 2 µM) have relative viability under 0.7?
OUTPUT: Not fulfilled

INPUT: Strictly below 0.7 in relative viability? O=C(O)CCCCC(CCSCc1ccccc1)SCc1ccccc1 (configuration not stated) [CPI-613] + O=C(c1cc(Cc2n[nH]c(=O)c3ccccc23)ccc1F)N1CCN(C(=O)C2CC2)CC1 [Olaparib] (partner 8 µM)
OUTPUT: Not fulfilled
